Source of measurements: PubChem BioAssay (NCI)

Assignment: determine reported growth for the given molecules.
Test system: NCI-H322M lung
Assay Procedure: NCI-60 one-dose screen, 48 h (100 = growth as untreated, 0 = no growth, -100 = all killed)
Condition Summary: 10 µM
Description: Growth inhibition of the NCI-H322M human Non-Small Cell Lung tumor cell line is measured as a screen for anti-cancer activity. Cells are grown in 96 well plates and exposed to the test compound for 48 hours. Compounds are tested at a single concentration, which is 10^-5 M for most compounds. The reported endpoint is percent growth (GI% or GIPRCNT), where numbers from 0 - 100% represent growth inhibition, and numbers from -100% - 0 represent cell death. […]
The panel holds about 83,000 compounds, 20% with a hit somewhere; the sample as a whole holds those more often.
Give the quantity in %, number only.

Qu. Returns the measured growth for the input molecule. Input: COc1cc2nc(Nc3cccc(NC(C)=O)c3)nc(N)c2cc1OC
Ans. 120

Qu. Returns the measured growth for the input molecule. Input: COc1cc(-c2nc(Nc3nc4ccccc4s3)[nH]c(=O)c2C#N)cc(OC)c1O
Ans. 124

Qu. Returns the measured growth for the input molecule. Input: Cc1ccc(NC(=O)Nc2nc3ccccc3s2)cc1NC(=O)Nc1nc2ccccc2s1
Ans. 97.6

Qu. Returns the measured growth for the input molecule. Input: Cc1cc(O)c(C(C)(C)C)cc1Sc1cc(C(C)(C)C)c(O)cc1C
Ans. 81.6

Qu. Returns the measured growth for the input molecule. Input: COc1cc2cc3c(nc2cc1OC)CCN3Cc1ccc(NC(=O)c2ccc(Cl)c(C(F)(F)F)c2)cc1
Ans. 84.9

Qu. Returns the measured growth for the input molecule. Input: O=c1[nH]c(-c2ccc(Cl)cc2)nc2sc3c(c12)CCCC3
Ans. 114

Qu. Returns the measured growth for the input molecule. Input: N=C(N)c1ccc(-c2ccc(-c3ccco3)o2)cc1
Ans. 67

Qu. Returns the measured growth for the input molecule. Input: COc1cc(Cl)cc(-c2nn(-c3cccc(NC(=O)Nc4ccc(Cl)c(C(F)(F)F)c4)c3)cc2-c2ccncc2)c1
Ans. 18.7

Qu. Returns the measured growth for the input molecule. Input: COc1cc(-c2cc(/C=C3\C(=O)Nc4ccccc43)[nH]n2)cc(OC)c1OC
Ans. 68.6

Qu. Returns the measured growth for the input molecule. Input: Cc1cc(C)c(NC(=O)c2sc3nc4c(cc3c2N)C(=O)CCC4)c(C)c1
Ans. 56.3
